- target-or-system: His-tagged CRBN-DDB1 complex (Homo sapiens (Human))
- Sequence (Q96SW2 whole entry): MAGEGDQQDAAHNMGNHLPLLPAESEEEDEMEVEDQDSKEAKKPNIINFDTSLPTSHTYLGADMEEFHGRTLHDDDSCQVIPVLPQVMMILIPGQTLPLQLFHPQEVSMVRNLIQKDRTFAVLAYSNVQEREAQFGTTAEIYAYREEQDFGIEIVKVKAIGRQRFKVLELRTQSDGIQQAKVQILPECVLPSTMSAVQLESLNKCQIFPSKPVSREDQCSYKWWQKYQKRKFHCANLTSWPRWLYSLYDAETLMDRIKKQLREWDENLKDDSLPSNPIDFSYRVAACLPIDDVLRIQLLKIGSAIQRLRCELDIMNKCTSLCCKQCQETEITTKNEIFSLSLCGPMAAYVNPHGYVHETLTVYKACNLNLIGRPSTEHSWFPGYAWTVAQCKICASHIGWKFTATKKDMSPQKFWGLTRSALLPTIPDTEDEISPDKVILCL
- Sequence (Q16531 whole entry partner): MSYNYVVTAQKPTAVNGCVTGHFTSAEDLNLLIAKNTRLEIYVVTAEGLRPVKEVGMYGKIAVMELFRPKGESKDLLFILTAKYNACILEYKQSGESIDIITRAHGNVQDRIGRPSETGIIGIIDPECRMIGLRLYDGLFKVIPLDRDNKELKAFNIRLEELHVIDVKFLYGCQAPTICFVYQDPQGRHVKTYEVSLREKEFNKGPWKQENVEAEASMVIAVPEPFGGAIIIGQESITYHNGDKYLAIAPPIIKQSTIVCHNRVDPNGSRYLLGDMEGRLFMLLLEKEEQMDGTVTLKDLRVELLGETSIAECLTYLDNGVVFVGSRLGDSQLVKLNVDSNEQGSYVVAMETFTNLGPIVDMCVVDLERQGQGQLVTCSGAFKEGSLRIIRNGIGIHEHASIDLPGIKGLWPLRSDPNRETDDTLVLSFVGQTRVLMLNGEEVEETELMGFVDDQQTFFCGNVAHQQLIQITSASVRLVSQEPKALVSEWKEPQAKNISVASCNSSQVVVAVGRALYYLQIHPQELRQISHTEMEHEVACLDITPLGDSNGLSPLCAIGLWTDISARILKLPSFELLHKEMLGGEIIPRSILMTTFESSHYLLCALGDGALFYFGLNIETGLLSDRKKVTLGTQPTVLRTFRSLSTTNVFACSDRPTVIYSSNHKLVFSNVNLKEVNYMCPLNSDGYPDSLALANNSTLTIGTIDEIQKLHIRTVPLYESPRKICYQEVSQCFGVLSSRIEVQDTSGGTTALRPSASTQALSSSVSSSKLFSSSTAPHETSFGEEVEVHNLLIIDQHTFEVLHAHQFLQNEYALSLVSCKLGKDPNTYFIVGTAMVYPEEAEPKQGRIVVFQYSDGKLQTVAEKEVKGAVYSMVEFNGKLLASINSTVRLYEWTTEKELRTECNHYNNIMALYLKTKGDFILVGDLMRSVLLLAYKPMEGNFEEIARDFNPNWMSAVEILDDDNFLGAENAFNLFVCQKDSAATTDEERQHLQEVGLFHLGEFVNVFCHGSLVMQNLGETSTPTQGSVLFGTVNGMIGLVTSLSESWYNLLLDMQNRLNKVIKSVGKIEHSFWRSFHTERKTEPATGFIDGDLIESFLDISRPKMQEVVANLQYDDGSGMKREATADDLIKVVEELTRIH
- measurement-description: Time-Resolved Fluorescence Resonance Energy Transfer (TR-FRET) assay
- Type: binding
- measurement-parameters: read-out: CRBN HTRF IC50
measured-endpoint: IC50

Worked cases, IC50 given:
{"columns": ["molecule", "target-or-system", "measured-endpoint", "reported-result"],
 "data": [
  ["O=C1CCC(Sc2cccc(C(=O)O)n2)C(=O)N1 (stereo not shown)", "His-tagged CRBN-DDB1 complex (Homo sapiens (Human))", "IC50", "1 to 10 µM"],
  ["CCc1ccc(SC2CCC(=O)NC2=O)cc1 (stereo not shown)", "His-tagged CRBN-DDB1 complex (Homo sapiens (Human))", "IC50", "1 to 10 µM"],
  ["CC(=O)Nc1ccc(SC2CCC(=O)NC2=O)cc1 (stereo not shown)", "His-tagged CRBN-DDB1 complex (Homo sapiens (Human))", "IC50", "10 to 100 µM"],
  ["O=C1CCC(Sc2ccc(C(=O)O)cn2)C(=O)N1 (stereo not shown)", "His-tagged CRBN-DDB1 complex (Homo sapiens (Human))", "IC50", "10 to 100 µM"],
  ["CN1CCN(c2ccc(OC3CCC(=O)NC3=O)cc2)CC1 (stereo not shown)", "His-tagged CRBN-DDB1 complex (Homo sapiens (Human))", "IC50", "10 to 100 µM"]
]}

[ask] For Cc1cc(O)nc(SC2CCC(=O)NC2=O)n1 (stereo not shown) , what is its reported IC50?
[reply] 10 to 100 µM

[ask] For N#Cc1ccccc1SC1CCC(=O)NC1=O (stereo not shown) , what is its reported IC50?
[reply] 10 to 100 µM

[ask] For O=C1CCC(Sc2ccccn2)C(=O)N1 (stereo not shown) , what is its reported IC50?
[reply] 10 to 100 µM

[ask] For O=C1CCC(Sc2cccc3cccnc23)C(=O)N1 (stereo not shown) , what is its reported IC50?
[reply] 1 to 10 µM

[ask] For Cc1coc(-c2ccnc(SC3CCC(=O)NC3=O)c2)n1 (stereo not shown) , what is its reported IC50?
[reply] 1 to 10 µM

====

Measured pIC50, listed per entry.
- target-or-system: His-tagged CRBN-DDB1 complex (Homo sapiens (Human))
- measurement-description: Time-Resolved Fluorescence Resonance Energy Transfer (TR-FRET) assay
- Assay type: binding
- measurement-parameters: read-out: CRBN HTRF IC50
pIC50: −log10 of the molar value.

Worked cases, pIC50 given:
{"columns": ["molecule", "target-or-system", "pIC50"],
 "data": [
  ["NC(=O)c1ccnc(SC2CCC(=O)NC2=O)c1 (stereo not drawn)", "His-tagged CRBN-DDB1 complex (Homo sapiens (Human))", "5.00 to 6.00"],
  ["O=C1CCC(Sc2cc(Cl)c(Cl)cc2Cl)C(=O)N1 (stereo not drawn)", "His-tagged CRBN-DDB1 complex (Homo sapiens (Human))", "4.00 to 5.00"],
  ["O=C1CCC(Sc2cccc[n+]2[O-])C(=O)N1 (stereo not drawn)", "His-tagged CRBN-DDB1 complex (Homo sapiens (Human))", "5.00 to 6.00"],
  ["Cn1c(=O)c(C2SC(=O)NC2=O)cc2ccccc21 (stereo not drawn)", "His-tagged CRBN-DDB1 complex (Homo sapiens (Human))", "4.00 to 5.00"],
  ["O=C1CCC(Sc2cccc(Br)c2)C(=O)N1 (stereo not drawn)", "His-tagged CRBN-DDB1 complex (Homo sapiens (Human))", "5.00 to 6.00"],
  ["N#Cc1cccc(SC2CCC(=O)NC2=O)c1 (stereo not drawn)", "His-tagged CRBN-DDB1 complex (Homo sapiens (Human))", "4.00 to 5.00"],
  ["COc1cccc(SC2CCC(=O)NC2=O)c1 (stereo not drawn)", "His-tagged CRBN-DDB1 complex (Homo sapiens (Human))", "5.00 to 6.00"],
  ["Cn1c(SC2CCC(=O)NC2=O)nc2ccccc21 (stereo not drawn)", "His-tagged CRBN-DDB1 complex (Homo sapiens (Human))", "4.00 to 5.00"]
]}

[ask] For O=C1CCC(Sc2cccc(Cl)c2)C(=O)N1 (stereo not drawn) , what is its reported pIC50?
[reply] 5.00 to 6.00

[ask] For O=C1CCC(Sc2nc3ccccc3n2C2CC2)C(=O)N1 (stereo not drawn) , what is its reported pIC50?
[reply] 4.00 to 5.00

[ask] For Cc1cccc(SC2CCC(=O)NC2=O)c1 (stereo not drawn) , what is its reported pIC50?
[reply] 4.00 to 5.00

[ask] For O=C1CCC(Sc2ccc(C(F)(F)F)cc2)C(=O)N1 (stereo not drawn) , what is its reported pIC50?
[reply] 4.00 to 5.00

[ask] For N#Cc1ccc(SC2CCC(=O)NC2=O)cc1 (stereo not drawn) , what is its reported pIC50?
[reply] 4.00 to 5.00
